Target under test: SARS-CoV-2 full length spike protein, D614G mutant (SARS-CoV-2, UniProt P0DTC2 14-1273)
Reported median fluorescence intensity, fold over isotype control values for the following binders.
Report the figure in fold over isotype without appending any unit label.

// known answers, use as guide
| Binder | Value observed |
| --- | --- |
| antibody 261 (antibody, V domains shown) VH: QVQLVESGGGVVQPGRSLRLSCAASGFTFSSYAMHWVRQAPGKGLEWVAVISYDGSNKYYADSVKGRFTISRDNSKNTLYLQMNSLRAEDTAVYYCARDEAYYDILTGYINAPKNYYYYGMDVWGQGTTVTVSS VL: DIQMTQSPSSLSASVGDRVTITCRASQGIRNDLGWYQQKPGKAPKRLIYAASSLQSGVPSRFSGSGSGTEFTLTISSLQPEDFATYYCLQHNSYPFTFGPGTKVDIK | 87 |
| antibody 272 (antibody, V domains shown) VH: QVQLVQSGAEVKKPGASVKVSCKASGYTFTTYYMHWVRQAPGQGLEWMGIINPSGGSASYAQKFQGRVTMTRDTSTSTVYMELSSLRSEDTAVYYCARDHTLVNGDYEYYYGMDVWGQGTTVTVSS VL: SYELTQPPSVSVSPGQTARITCSGDALPKQYAYWYQQKPGQAPVSVIYKDSERPSGIPERISGSSSGTTVTLTISGVQAEDEADYYCQSADSSGTYLVFGGGTKLTVL | 79.7 |

Here is another binder to look at.
QUERY: Give me measured median fluorescence intensity, fold over isotype control, please, for this binder: antibody 308 (antibody, V domains shown) VH: QLQLQESGPGLVKPSETLSLTCSVSGGSISSSSYHWGWIRQPPGKGLEWIGSIYYSGSTYYNPSLKSRVTISVDTSKNQFSLKLRSVTAADTAVYYCAGLRVVITFGGVIPKGGAFDIWGQGTMVTVSS VL: QSALTQPASVSGSPGQSITISCTGTSSDVGGYNYVSWYQQHPGKAPKLMIYDVSNRPSGVSNRFSGSKSGNTASLTISGLQAEDEADYYCSSYTSSSTVVFGGGTKLTVL
RESULT: 7.93
